# protocol: self-splicing fitness, log relative to wild type (ln ratio); higher = more splicing; Tetrahymena group I intron in knt gene, E. coli kanamycin selection, DiMSum; sequences stand for … in CUCUCU…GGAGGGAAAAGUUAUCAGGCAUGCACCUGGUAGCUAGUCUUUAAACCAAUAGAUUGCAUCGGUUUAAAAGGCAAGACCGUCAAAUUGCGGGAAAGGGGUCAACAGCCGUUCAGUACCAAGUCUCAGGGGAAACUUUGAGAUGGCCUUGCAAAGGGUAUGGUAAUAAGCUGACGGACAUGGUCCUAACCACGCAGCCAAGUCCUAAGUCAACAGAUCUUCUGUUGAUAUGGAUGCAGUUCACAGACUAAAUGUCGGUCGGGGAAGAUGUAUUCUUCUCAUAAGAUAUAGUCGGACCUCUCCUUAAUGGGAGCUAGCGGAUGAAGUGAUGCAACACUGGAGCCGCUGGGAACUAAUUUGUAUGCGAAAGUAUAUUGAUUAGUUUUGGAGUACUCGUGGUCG;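 note: selection with 25 µg/mL kanamycin versus none on LB agar overnight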
# recorded-conditions: 37 °C
readout-name: self-splicing fitness (ln)
Simply state the number, no unit and no words.

The cases that follow already have their self-splicing fitness (ln) on record.
[[record]]
seq_string = "GGACAGCAAUAUUACGUGUG"
readout_name = "self-splicing fitness (ln)"
assay_result = -0.79

[[record]]
seq_string = "ACGGAGCAAUAUUACGUGAC"
readout_name = "self-splicing fitness (ln)"
assay_result = -2.16


Lookup result for `GCGGAGCAAUAUUACGUGGC` ; measured self-splicing fitness (ln): -3.01

self-splicing fitness (ln) in this record for `AGGAAGCAAUAUUACGGACG` : 0.276

# self-splicing fitness (ln) (sequence: `AGAAAGCAAUAUUACGAACU` ) is 0.00874

Summary for this sequence, `UACGAGCAAUAUUACGACUU` : self-splicing fitness (ln) is -0.959

`UGCAAGCAAUAUUACGGAAC` yielded self-splicing fitness (ln) of -0.851

Form: sequence = `ACGGAGCAAUAUUACGCUCC` ; self-splicing fitness (ln) = -1.28

The sequence identified as `UGGUAGCAAUAUUACGUACA` registered its self-splicing fitness (ln) at 0.35

Query `UGAGAGCAAUAUUACGCCUA` yields self-splicing fitness (ln) of -0.073
